Data provenance is the Biogen ADME set (Fang et al. 2023).

settings: pH 6.8
ASSAY_ENDPOINT: aqueous solubility (µg/mL)

Below are worked cases with known answers.
{"MOLECULE": "CC(C(=O)N1CCc2sccc2C1)N1CCCN(c2ccccc2C#N)CC1 (stereo not drawn)", "ASSAY_ENDPOINT": "aqueous solubility", "READING": 25.6}
{"MOLECULE": "CC#CC(=O)N1CC[C@@H](n2cc(-c3ccc(Oc4c(F)cccc4F)cc3)c3c(N)n[nH]c(=O)c32)C1", "ASSAY_ENDPOINT": "aqueous solubility", "READING": 2.7}
{"MOLECULE": "CNC(=O)c1ccc(N(C)C2CCC2)nn1", "ASSAY_ENDPOINT": "aqueous solubility", "READING": 47.3}
{"MOLECULE": "CN1CCN(c2ncncc2-c2nc(-c3ccccc3)no2)CC1", "ASSAY_ENDPOINT": "aqueous solubility", "READING": 56.4}
{"MOLECULE": "Cc1noc(CCNc2ncnc3ccccc23)n1", "ASSAY_ENDPOINT": "aqueous solubility", "READING": 38.2}
{"MOLECULE": "CCN1CCN(Cc2ccc(Nc3ncc(F)c(-c4cc(F)c5nc(C)n(C(C)C)c5c4)n3)nc2)CC1.CS(=O)(=O)O", "ASSAY_ENDPOINT": "aqueous solubility", "READING": 48.2}
{"MOLECULE": "O=C(C1CCCN(S(=O)(=O)c2ccccc2)C1)N1CCc2ccccc2C1 (stereo not drawn)", "ASSAY_ENDPOINT": "aqueous solubility", "READING": 33.9}
{"MOLECULE": "Cn1cc(-c2ccc(-c3cncc(Cl)c3N3CCC4(CCNC4=O)CC3)cc2)cn1", "ASSAY_ENDPOINT": "aqueous solubility", "READING": 3.11}
{"MOLECULE": "CCNC(=O)c1ccc(-c2cc(C)cc(OC)c2OC)nc1", "ASSAY_ENDPOINT": "aqueous solubility", "READING": 34.8}
{"MOLECULE": "Cn1cc(C(=O)NCCc2c[nH]c3ccccc23)c(-c2cccnc2)n1", "ASSAY_ENDPOINT": "aqueous solubility", "READING": 56.2}

A. O=C(Nc1ccccn1)c1cccc2ccccc12
B. N#Cc1ccccc1N1CCC(N)CC1
Lowest aqueous solubility? choose A or B Reply with the label of the item you choose. A
(A: 35.3 µg/mL, B: 54.7 µg/mL)

P. O=C(CSC1CCCC1)N1CCC(Cn2cccn2)CC1
Q. CCS(=O)(=O)Nc1ccc(Oc2ccc(F)cc2F)c(-c2cn(C)c(=O)c3[nH]ccc23)c1
Which record would sort first by descending aqueous solubility, P or Q ? Reply with the label of the item you choose. P

1. CN(Cc1ccncc1)Cc1cc2ccccc2nc1O
2. Cc1csc(-c2nnc(Nc3ccc(Oc4ncccc4-c4ccnc(N)n4)cc3)c3ccccc23)c1
Lowest aqueous solubility? choose 1 or 2 Reply with the label of the item you choose. 2

###

ASSAY_ENDPOINT: intrinsic clearance, human liver microsomes

{"SMILES": "CCn1c(=O)n(CC)c2cc(N)ccc21", "READING": "≤ 0.284 L/h/kg"}
{"SMILES": "c1ccc(Cc2nnc(NC3CCOCC3)s2)cc1", "READING": "≤ 0.284 L/h/kg"}
{"SMILES": "CNc1nc(-c2cc(OC)cc(OC)c2)ncc1F", "READING": "2.22 L/h/kg"}
{"SMILES": "COc1cccc(Oc2ccc(NC(=O)CN3CCOCC3)cn2)c1", "READING": "≤ 0.284 L/h/kg"}

Query: intrinsic clearance, human liver microsomes; subject: CC(=O)N1CC[C@H]2O[C@H]3c4ccc(O[C@@H]5O[C@H](CO)[C@@H](O[C@@H]6O[C@H](CO)[C@H](O)[C@H](O)[C@H]6O)[C@H](O)[C@H]5O)cc4OC(C)(C)[C@@H]3C[C@H]2C1 ≤ 0.284 L/h/kg

###

ASSAY_ENDPOINT: MDR1-MDCK efflux ratio

I. CNCc1cc(N(C)C)nc(C2CCCN2C(=O)C2CN(Cc3ccc(Cl)cc3)C2)n1 (stereo unspecified)
II. O=C1CC[C@H](O)[C@@H](c2cccc(Cl)c2)N1Cc1ccccc1
III. Cc1noc(C(C)C)c1C(=O)Nc1ccccn1
IV. O=C(NCC1(c2ccccc2)CC1)c1cccnc1
Hey, quick one: sort these by MDR1-MDCK efflux ratio, top value first please. Arrange the labels as the request states and list them. I, II, IV, III

I. CC(C)c1nc(O)c2nnn(C[C@@H]3CCCN(C(=O)C(C)(C)C)C3)c2n1
II. C#CCN1CCC[C@H]1C(=O)Nc1cnn(-c2ncccn2)c1
III. CCc1nc(CN2CCC(=O)Nc3cc(F)ccc32)n[nH]1
IV. CCC(CC)N1CC[C@H](O)[C@@](O)(COc2cc(C)ccc2Cl)C1
Form: Sort by [MDR1-MDCK efflux ratio] Order [ ascending ] Arrange the labels as the request states and list them. IV, II, III, I
(IV: 1.18, II: 3.95, III: 14.7, I: 34.4)

P. CC(=O)Nc1cnn(CC2CCN(C)CC2)c1
Q. Cc1ccc2nc3c(c(C(=O)NCc4nnc5n4CCC5)c2c1)CCCC3
Lowest MDR1-MDCK efflux ratio? choose P or Q Reply with the label of the item you choose. P

###

details: pH 6.8
ASSAY_ENDPOINT: aqueous solubility (µg/mL)

Below are worked cases with known answers.
{"SMILES": "CNC(=O)CC1CCN(c2ncccn2)CC1", "aqueous solubility / µg/mL": 50}
{"SMILES": "CC1CCN(C(=O)c2n[nH]c3ccccc23)CC1", "aqueous solubility / µg/mL": 26.4}
{"SMILES": "c1nc(NC2CCN(C3CC3)CC2)c2sccc2n1", "aqueous solubility / µg/mL": 56.2}
{"SMILES": "CCc1nnc(NC(=O)Cc2c(C)noc2C)s1", "aqueous solubility / µg/mL": 44.6}
{"SMILES": "C1CCN(c2nc(NC3CC3)nc(N3CCCCC3)n2)CC1", "aqueous solubility / µg/mL": 0.62}

I. CNC(=O)c1sc2ncccc2c1[C@H]1CC[C@H](CNC(=O)CCc2ccccc2)CC1
II. COc1ccc(N2N=C(C)/C(=C(\C)Nc3ccc(S(N)(=O)=O)cc3)C2=O)cc1
Which record would sort first by descending aqueous solubility, I or II ? Reply with the label of the item you choose. I

1. CSc1ccc(CN(CCO)C(=O)CCc2cccc(F)c2)cc1
2. O=C(COc1ccc(F)cc1F)N1CCNC1=O
Which record would sort first by descending aqueous solubility, 1 or 2 ? Reply with the label of the item you choose. 2

I. Cc1nc(NC2(c3cccc(Cl)c3)CC2)c2c(C)noc2n1
II. CSCC(=O)Nc1nc(-c2ccc(C3CCCCC3)cc2)cs1
Which record would sort first by descending aqueous solubility, I or II ? Reply with the label of the item you choose. I
(I: 41.4 µg/mL, II: 0.37 µg/mL)

###

ASSAY_ENDPOINT: intrinsic clearance, human liver microsomes (mL/min/kg)

{"SMILES": "COC(=O)N[C@H](C)CNc1nccc(-c2cn(C(C)C)nc2-c2cc(Cl)cc(NS(C)(=O)=O)c2F)n1", "MEASURE_UNIT": "mL/min/kg", "READING": 14.7}

A. Cc1cccc2sc(NC(=O)C(C)(C)C)nc12
B. Cc1cc(N2CCCCC2)nc(CNC(=O)c2ccccc2Cl)n1
Lowest intrinsic clearance, human liver microsomes? choose A or B Reply with the label of the item you choose. A

###

ASSAY_ENDPOINT: intrinsic clearance, human liver microsomes (mL/min/kg)

{"MOLECULE": "Cc1cccc(NC2CCN(Cc3ccncc3)CC2)n1", "READING": 18.6}
{"MOLECULE": "CC(=O)N1CCC(CCNc2ccc3ccc(F)cc3n2)CC1", "READING": 21.5}
{"MOLECULE": "c1cc2c(N3CCNCC3)nc(-c3ccnc(NC4CCCCC4)c3)cc2cn1", "READING": 68.7}

1. Cc1cc(C)nc(SCC(=O)N2c3ccccc3C(C)(c3ccccc3)CC2(C)C)n1 (centres undefined)
2. COc1cccc(-c2ccc(C(=O)N(C)Cc3c(C)nn(C(C)C)c3C)o2)c1
Which record would sort first by descending intrinsic clearance, human liver microsomes, 1 or 2 ? Reply with the label of the item you choose. 1

P. Cc1ccc2c(CC(=O)N(C)Cc3nnc4n3CCC4)coc2c1C
Q. CSCC[C@@H](CO)n1ccnc1-c1oc2ccccc2c1C
Which record would sort first by descending intrinsic clearance, human liver microsomes, P or Q ? Reply with the label of the item you choose. Q

###

ASSAY_ENDPOINT: intrinsic clearance, human liver microsomes

Below are worked cases with known answers.
{"COMPOUND": "CC(=O)N1CCC(CNc2nccc3cccnc23)CC1", "READING": "≤ 4.74 mL/min/kg"}
{"COMPOUND": "Cc1cc(CN2CCN(c3ncccn3)CC2)on1", "READING": "≤ 4.74 mL/min/kg"}
{"COMPOUND": "O=C(CCNc1ncccn1)N1CCc2ccccc2C1", "READING": "24.8 mL/min/kg"}

Query: intrinsic clearance, human liver microsomes; subject: CON(C)C(=O)CCc1c(C)nn(C)c1C ≤ 4.74 mL/min/kg

Here is the next compound: CC(C)n1cc(CN2CCC(c3nc(N(C)C)no3)CC2)cn1 ≤ 4.74 mL/min/kg

Here is the next compound: Cc1cc(-c2nc(N(C)C)no2)cc(O)n1 ≤ 4.74 mL/min/kg

Here is the next compound: Cn1cc(CN2CCCC(c3ccnc(Nc4cnccn4)c3)C2)cn1 (configuration not stated) 7.74 mL/min/kg
